# credit: ChEMBL document CHEMBL6178023

tested-system: Polyprotein P1234 (Chikungunya virus (strain S27-African prototype) (CHIKV), UniProt Q8JUX6)
Sequence (Q8JUX6 536-1333 limits assumed): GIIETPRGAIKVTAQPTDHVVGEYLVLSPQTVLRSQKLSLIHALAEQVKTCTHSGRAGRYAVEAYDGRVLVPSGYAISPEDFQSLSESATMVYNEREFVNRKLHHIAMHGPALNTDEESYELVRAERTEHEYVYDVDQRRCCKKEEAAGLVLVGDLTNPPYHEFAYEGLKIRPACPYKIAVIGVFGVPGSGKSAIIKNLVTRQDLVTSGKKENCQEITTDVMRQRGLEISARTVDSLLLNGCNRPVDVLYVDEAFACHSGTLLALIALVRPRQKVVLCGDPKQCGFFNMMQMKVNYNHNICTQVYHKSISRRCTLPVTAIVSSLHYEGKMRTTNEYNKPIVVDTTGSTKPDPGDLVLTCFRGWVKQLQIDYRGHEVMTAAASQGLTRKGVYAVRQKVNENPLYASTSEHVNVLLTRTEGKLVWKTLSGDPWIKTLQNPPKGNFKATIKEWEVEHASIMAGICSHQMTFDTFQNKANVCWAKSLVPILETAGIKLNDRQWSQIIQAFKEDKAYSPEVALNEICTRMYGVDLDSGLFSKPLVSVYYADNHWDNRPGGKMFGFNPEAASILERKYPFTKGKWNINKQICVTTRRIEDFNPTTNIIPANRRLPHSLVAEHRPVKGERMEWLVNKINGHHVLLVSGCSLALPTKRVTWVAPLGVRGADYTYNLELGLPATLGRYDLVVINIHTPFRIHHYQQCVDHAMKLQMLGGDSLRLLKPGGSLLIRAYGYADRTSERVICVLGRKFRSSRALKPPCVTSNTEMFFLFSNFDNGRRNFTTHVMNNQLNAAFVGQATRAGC
protocol-summary: Inhibition of N-terminal 6-His/SUMO-tagged CHIKV 181/25 nsP2 extracted from Escherichia coli Rosetta 2 preincubated for 30 mins followed by ATP addition measured after 1 hr by ADP-Glo assay
pIC50: −log10 of the molar value.

compound: O=C(NCC1CCOC2(CCN(C(=O)C3(c4ccccc4)CCCC3)CC2)C1)c1ccccc1 (centres undefined)
qualifier: =
pIC50: 4.80

compound: CN(C)S(=O)(=O)NCC1CCOC2(CCN(C(=O)C3(c4ccccc4F)CCCC3)CC2)C1 (centres undefined)
qualifier: =
pIC50: 4.50

compound: CN(C)S(=O)(=O)NCC1CCOC2(CCN(C(=O)C3(c4ccccc4)CCCC3)CC2)C1 (centres undefined)
qualifier: <
pIC50: 4.40

compound: O=C(N1CCC2(CC1)CC(CN1CCCCS1(=O)=O)CCO2)C1(c2cc(F)cc(F)c2)CCCC1 (centres undefined)
qualifier: =
pIC50: 6.40

compound: O=C(N1CCC2(CC1)CC(CNS(=O)(=O)c1ccccc1)CCO2)C1(c2ccccc2)CCCC1 (centres undefined)
qualifier: <
pIC50: 4.40

compound: O=C(NCC1CCOC2(CCN(C(=O)C3(c4ccccc4)CCCC3)CC2)C1)C1CCCCC1 (centres undefined)
qualifier: =
pIC50: 4.50

compound: O=C(N1CCC2(CC1)CC(CN1CCCCS1(=O)=O)CCO2)C1(c2ccccc2)CCCC1 (centres undefined)
qualifier: =
pIC50: 6.30

compound: Cc1ccnc(OC2CCOC3(CCN(C(=O)C4(c5ccccc5)CCCC4)CC3)C2)c1 (centres undefined)
qualifier: <
pIC50: 4.40

compound: O=C1CCC(=O)N1CC1CCOC2(CCN(C(=O)C3(c4ccccc4)CCCC3)CC2)C1 (centres undefined)
qualifier: =
pIC50: 5.90

* * *

protocol-summary: Aqueous solubility of compound in PBS at pH 7.4
Type: physicochemical
measurement-name: solubility kinetic (µM)

compound: O=C(N1CCC2(CC1)CC(CNCC(F)(F)F)CCO2)C1(c2ccccc2)CCCC1 (stereo not given)
measurement-name: solubility kinetic
assay-value: 170
--
compound: CNCC1CCOC2(CCN(C(=O)C3(c4ccccc4)CCCC3)CC2)C1 (stereo not given)
measurement-name: solubility kinetic
assay-value: 170
--
compound: CC(C)C(=O)NCC1CCOC2(CCN(C(=O)C3(c4ccccc4)CCCC3)CC2)C1 (stereo not given)
measurement-name: solubility kinetic
assay-value: 170
--
compound: O=C(CCCCl)NCC1CCOC2(CCN(C(=O)C3(c4ccccc4)CCCC3)CC2)C1 (stereo not given)
measurement-name: solubility kinetic
assay-value: 170
--
compound: O=C(NCC1CCOC2(CCN(C(=O)C3(c4ccccc4)CCCC3)CC2)C1)C1CC1 (stereo not given)
measurement-name: solubility kinetic
assay-value: 160

* * *

protocol-summary: Aqueous solubility of compound
Type: physicochemical
measurement-setup: buffer
Quick list: solubility per entry.

compound: CS(=O)(=O)NCC1CCOC2(CCN(C(=O)C3(c4ccccc4)CCCC3)CC2)C1 (configuration not stated)
solubility: 240 µM
//
compound: Cc1ccnc(OC2CCOC3(CCN(C(=O)C4(c5ccccc5)CCCC4)CC3)C2)c1 (configuration not stated)
solubility: 14 µM

* * *

Test system: Chikungunya virus
protocol-summary: Inhibition of N-terminal 6-His/SUMO-tagged CHIKV 181/25 nsP2 extracted from Escherichia coli Rosetta 2 at 200 uM preincubated for 30 mins followed by ATP addition measured after 1 hr by ADP-Glo assay relative to control
measurement-setup: time 90.0 min
Calls of active or inactive are those of the source. No cut-off for these calls is given here.

molecule: CS(=O)(=O)NCC1CCOC2(CCN(C(=O)C3(c4ccccc4)CCC3)CC2)C1 (stereo not drawn)
tested-system: Chikungunya virus
inhibition: inactive
--
molecule: CC1(C(=O)N2CCC3(CC2)CC(CNS(C)(=O)=O)CCO3)CCCC1 (stereo not drawn)
tested-system: Chikungunya virus
inhibition: inactive
--
molecule: COc1ccc(C2(C(=O)N3CCC4(CC3)CC(CNS(C)(=O)=O)CCO4)CCCC2)cc1 (stereo not drawn)
tested-system: Chikungunya virus
inhibition: inactive
--
molecule: O=C1CCCN1CC1CCOC2(CCN(C(=O)C3(c4ccccc4)CCCC3)CC2)C1 (stereo not drawn)
tested-system: Chikungunya virus
inhibition: 90%
--
molecule: CS(=O)(=O)NCC1CCOC2(CCN(C(=O)C3(c4ccccc4)CCCCC3)CC2)C1 (stereo not drawn)
tested-system: Chikungunya virus
inhibition: 80%
--
molecule: Cc1ccnc(OC2CCOC3(CCN(C(=O)C4(c5ccccc5)CCCC4)CC3)C2)c1 (stereo not drawn)
tested-system: Chikungunya virus
inhibition: 40%
--
molecule: CS(=O)(=O)NCC1CCOC2(CCN(C(=O)C3(c4ccc(Cl)cc4)CCCC3)CC2)C1 (stereo not drawn)
tested-system: Chikungunya virus
inhibition: inactive
--
molecule: CC(C)(C(=O)N1CCC2(CC1)CC(CNS(C)(=O)=O)CCO2)c1ccccc1 (stereo not drawn)
tested-system: Chikungunya virus
inhibition: 40%
--
molecule: O=C(NCC1CCOC2(CCN(C(=O)C3(c4ccccc4)CCCC3)CC2)C1)C1CC1 (stereo not drawn)
tested-system: Chikungunya virus
inhibition: 80%
--
molecule: CS(=O)(=O)NCC1CCOC2(CCN(C(=O)C3(c4ccccc4)CCCC3)CC2)C1 (stereo not drawn)
tested-system: Chikungunya virus
inhibition: 40%
--
molecule: O=C(NCC1CCOC2(CCN(C(=O)C3(c4ccccc4)CCCC3)CC2)C1)c1ccccn1 (stereo not drawn)
tested-system: Chikungunya virus
inhibition: 90%
--
molecule: CN(C)S(=O)(=O)NCC1CCOC2(CCN(C(=O)C3(c4cccc(C(F)(F)F)c4)CCCC3)CC2)C1 (stereo not drawn)
tested-system: Chikungunya virus
inhibition: 40%
--
molecule: CS(=O)(=O)NCC1CCOC2(CCN(C(=O)C3(c4ccccc4)CCOCC3)CC2)C1 (stereo not drawn)
tested-system: Chikungunya virus
inhibition: inactive
--
molecule: Cc1ccc(C2(C(=O)N3CCC4(CC3)CC(CNS(C)(=O)=O)CCO4)CCCC2)cc1 (stereo not drawn)
tested-system: Chikungunya virus
inhibition: inactive
--
molecule: CC(C)(C)NC(=O)NCC1CCOC2(CCN(C(=O)C3(c4ccccc4)CCCC3)CC2)C1 (stereo not drawn)
tested-system: Chikungunya virus
inhibition: 80%
--
molecule: O=C(N1CCC2(CC1)CC(Oc1ccccn1)CCO2)C1(c2ccccc2)CCCC1 (stereo not drawn)
tested-system: Chikungunya virus
inhibition: 60%
--
molecule: O=C(N1CCC2(CC1)CC(CNS(=O)(=O)c1ccccc1)CCO2)C1(c2ccccc2)CCCC1 (stereo not drawn)
tested-system: Chikungunya virus
inhibition: 40%
--
molecule: CCCCCCOc1ccc(C(=O)NCC2CCOC3(CCN(C(=O)C4(c5ccccc5)CCCC4)CC3)C2)cc1 (stereo not drawn)
tested-system: Chikungunya virus
inhibition: inactive
--
molecule: CCS(=O)(=O)NCC1CCOC2(CCN(C(=O)C3(c4ccccc4)CCCC3)CC2)C1 (stereo not drawn)
tested-system: Chikungunya virus
inhibition: 70%
--
molecule: NC(=O)NCC1CCOC2(CCN(C(=O)C3(c4ccccc4)CCCC3)CC2)C1 (stereo not drawn)
tested-system: Chikungunya virus
inhibition: 50%
--
molecule: CC(C)C(=O)NCC1CCOC2(CCN(C(=O)C3(c4ccccc4)CCCC3)CC2)C1 (stereo not drawn)
tested-system: Chikungunya virus
inhibition: 80%
--
molecule: COc1ccccc1NC(=O)NCC1CCOC2(CCN(C(=O)C3(c4ccccc4)CCCC3)CC2)C1 (stereo not drawn)
tested-system: Chikungunya virus
inhibition: inactive
--
molecule: CS(=O)(=O)NCC1CCOC2(CCN(C(=O)Cc3ccccc3)CC2)C1 (stereo not drawn)
tested-system: Chikungunya virus
inhibition: inactive
--
molecule: CN(C)S(=O)(=O)NCC1CCOC2(CCN(C(=O)C3(c4ccccc4)CCCC3)CC2)C1 (stereo not drawn)
tested-system: Chikungunya virus
inhibition: 90%
--
molecule: CN(C)S(=O)(=O)NCC1CCOC2(CCN(C(=O)C3(c4ccccn4)CCCC3)CC2)C1 (stereo not drawn)
tested-system: Chikungunya virus
inhibition: 40%
--
molecule: CN(CC1CCOC2(CCN(C(=O)C3(c4ccccc4)CCCC3)CC2)C1)C(=O)c1ccccn1 (stereo not drawn)
tested-system: Chikungunya virus
inhibition: 80%
--
molecule: CN(C)S(=O)(=O)NCC1CCOC2(CCN(C(=O)C(=O)c3ccccc3)CC2)C1 (stereo not drawn)
tested-system: Chikungunya virus
inhibition: inactive
--
molecule: CN(C)S(=O)(=O)NCC1CCOC2(CCN(C(=O)C3(c4cccnc4)CCCC3)CC2)C1 (stereo not drawn)
tested-system: Chikungunya virus
inhibition: inactive
--
molecule: NCC1(O)CCOC2(CCN(C(=O)C3(c4ccccc4)CCCC3)CC2)C1 (stereo not drawn)
tested-system: Chikungunya virus
inhibition: inactive
--
molecule: Cc1cccc(C2(C(=O)N3CCC4(CC3)CC(CNS(=O)(=O)N(C)C)CCO4)CCCC2)c1 (stereo not drawn)
tested-system: Chikungunya virus
inhibition: 90%
--
molecule: CNCC1CCOC2(CCN(C(=O)C3(c4ccccc4)CCCC3)CC2)C1 (stereo not drawn)
tested-system: Chikungunya virus
inhibition: inactive
--
molecule: CC(C)NC(=O)NCC1CCOC2(CCN(C(=O)C3(c4ccccc4)CCCC3)CC2)C1 (stereo not drawn)
tested-system: Chikungunya virus
inhibition: 50%
--
molecule: CN(C)S(=O)(=O)NCC1CCOC2(CCN(C(=O)C3(c4ccncc4)CCCC3)CC2)C1 (stereo not drawn)
tested-system: Chikungunya virus
inhibition: inactive
--
molecule: O=C(N1CCC2(CC1)CC(CN1CCCCS1(=O)=O)CCO2)C1(c2ccc(F)cc2)CCCC1 (stereo not drawn)
tested-system: Chikungunya virus
inhibition: 80%
--
molecule: CS(=O)(=O)N(Cc1ccccc1)CC1CCOC2(CCN(C(=O)C3(c4ccccc4)CCCC3)CC2)C1 (stereo not drawn)
tested-system: Chikungunya virus
inhibition: inactive
--
molecule: CN(C)S(=O)(=O)NCC1CCOC2(CCN(C(=O)C3(c4ccccc4)CCCO3)CC2)C1 (stereo not drawn)
tested-system: Chikungunya virus
inhibition: inactive
--
molecule: COc1cccc(C2(C(=O)N3CCC4(CC3)CC(CNS(=O)(=O)N(C)C)CCO4)CCCC2)c1 (stereo not drawn)
tested-system: Chikungunya virus
inhibition: 80%
--
molecule: COc1cccc(C(=O)NCC2CCOC3(CCN(C(=O)C4(c5ccccc5)CCCC4)CC3)C2)c1 (stereo not drawn)
tested-system: Chikungunya virus
inhibition: 70%
